test: inhibitors of TNFa-induced NFkB p65 translocation, primary screen, imaging, HUVEC, MLSMR starter and 10KST1 sets (AID 438); conditions: HUVEC TNFa-induced p65 nuclear translocation; measured here: nuclei count (cytotoxicity indicator), at 2.08 µM;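 note: compound added about 3h40 before a 20 min TNFalpha stimulation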
Binning scheme for cell count: range 1 (below 500), range 2 (500 to below 600), range 3 (600 or more)

{"Molecule": "CCN(Cc1nc2ccccc2c(=O)[nH]1)Cc1cc(=O)oc2cc(C)c(C)cc12", "Class assignment": "range 1"}
{"Molecule": "CCN(CC)c1nc(N(CC)CC)[nH]c(=O)n1", "Class assignment": "range 1"}
{"Molecule": "CC(C)NCc1c(O)c(Br)cc2oc3c(c12)CCCC3", "Class assignment": "range 2"}
{"Molecule": "COc1ccc(-c2cc3n(n2)CCc2nc4ccccc4n2-3)cc1", "Class assignment": "range 1"}

stdin: Which of the defined bands does the recorded cell count of O=C(c1cnccn1)N(c1ccccc1)C1(C(=O)NC2CCCC2)CCCCC1 sit within?
stdout: range 3

stdin: Which of the defined bands does the recorded cell count of C=CCOc1ccc(C2/C(=C(\O)c3c(C)[nH]c(C(=O)OC)c3C)C(=O)C(=O)N2CCN(C)C)cc1 (stereo not drawn) sit within?
stdout: range 1

stdin: Which of the defined bands does the recorded cell count of CN(C)CCN1C(=O)C(O)=C(C(=O)c2cc3ccccc3o2)C1c1ccc(N(C)C)cc1 (stereo not drawn) sit within?
stdout: range 2

stdin: Which of the defined bands does the recorded cell count of Cc1ccc(C(=O)/C=C/Nc2ccccn2)cc1 sit within?
stdout: range 1

stdin: Which of the defined bands does the recorded cell count of N#C/C(=C(/O)CN1CCOCC1)c1nc2ccccc2s1 sit within?
stdout: range 3

====

Recorded nuclei count values for a group of compounds are listed next.
test: inhibitors of mutant huntingtin aggregation, primary screen, imaging, exon1htt(103Q)mCFP cells, high-content imaging (AID 483); conditions: exon1htt(103Q)mCFP cell line, aggregate imaging, at 2 µM; measured here: cell count, toxicity;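 note: compound exposure lasted 3 days before fixation; percent of the per-plate median nuclei count of sample wells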
Numeric answer only, unit % assumed.

Solved cases (6 shown):
{"Compound": "C=CCSC1=C(C#N)C(c2ccccc2OCC)CC(=O)N1 (centres undefined)", "Measured number": 99}
{"Compound": "C=CCn1c(SCc2ccc(C#N)cc2)nnc1-c1cccc(Cl)c1", "Measured number": 95.4}
{"Compound": "CCC1(C)Cc2c(C#N)c(N)n(N)c(=S)c2CO1 (centres undefined)", "Measured number": 97.6}
{"Compound": "CCCCCc1c(C)nc(N2CCc3ccccc32)[nH]c1=O", "Measured number": 112}
{"Compound": "O=C(CN(C(=O)CCC(=O)Nc1nccs1)c1ccccc1F)NCC1CCCO1 (centres undefined)", "Measured number": 87.3}
{"Compound": "COc1ccc(C(=O)N2CCCc3ccccc32)cc1", "Measured number": 107}

stdin: Fill in reported nuclei count for this entry: O=P(O)(CCc1ccccc1)CN1CCCCC1
stdout: 100

stdin: Fill in reported nuclei count for this entry: N#Cc1c(NC(NC(=O)c2ccco2)C(=O)c2ccccc2)sc2c1CCCC2 (centres undefined)
stdout: 118

stdin: Fill in reported nuclei count for this entry: COCCn1c(SCc2csc(-c3ccccc3)n2)nc2ccccc21
stdout: 97.2

stdin: Fill in reported nuclei count for this entry: O=C(O)CCc1ccc(-c2cccs2)o1
stdout: 103

stdin: Fill in reported nuclei count for this entry: CCCn1c(C)cc(C(=O)COc2ncnc3sccc23)c1C
stdout: 65.8

stdin: Fill in reported nuclei count for this entry: CCOc1ccc(OCc2cccc(C(=O)N3CCCC3)c2)cc1
stdout: 103

Origin of the recorded values: PubChem BioAssay
